Experiment: Drug uptake in ICR mouse brain at 30 mg/kg, iv measured at 0.25 hrs by LC/MS/MS analysis
Assay type: ADME, organism-based
Design: dose 30 mg/kg, route intravenous
Run Conditions: read-out: Drug uptake
Endpoint Name: concentration at 0.25 h (ng/g)

INSERT INTO results (smiles_code, units_of_measure, result_number) VALUES
  ('Cl.O=c1[nH]nc2c(NCCCc3ccncc3)cc(Cl)cn12', 'ng/g', 214);

* * *

Tested On: Glycogen synthase kinase-3 (Homo sapiens, UniProt P49840+P49841)
Experiment: Inhibition of recombinant human GSK3 using YRRAAVPPSPSLSRHSSPHQ(pS)EDEEE as substrate preincubated for 10 mins followed by [33P-gamma]-ATP addition measured after 30 mins by liquid scintillation counting analysis
Assay type: protein assay
Please use Met for IC50 under 800 nM and Not met for everything else, ties included.

INSERT INTO assay_data (smiles_code, group) VALUES
  ('Cc1cc(NCCCc2ccncc2)c2n[nH]c(=O)n2c1.Cl', 'Met'),
  ('Cc1cc(NCCCc2ccnc(Cl)c2)c2n[nH]c(=O)n2c1.Cl', 'Met'),
  ('Nc1cccn2c(=O)[nH]nc12', 'Not met'),
  ('Cc1cc(NCCCN2CCNCC2)c2n[nH]c(=O)n2c1.Cl', 'Not met'),
  ('Cc1cc(NCCCc2ccc(N)cc2)c2n[nH]c(=O)n2c1.Cl', 'Not met'),
  ('Cc1ccc(CCCNc2cc(Cl)cn3c(=O)[nH]nc23)cn1.Cl', 'Met'),
  ('Cl.O=c1[nH]nc2c(NCCCc3cccc(OCCN4CCOCC4)c3)cc(Cl)cn12', 'Met'),
  ('Cl.O=c1[nH]nc2c(NCCCc3ccncc3)cc(Cl)cn12', 'Met'),
  ('Cc1cc(NCCCc2cccnc2)c2n[nH]c(=O)n2c1.Cl', 'Met'),
  ('COc1cccc(CCCNc2cc(Cl)cn3c(=O)[nH]nc23)c1', 'Met'),
  ('COc1ccc(CCC(=O)Nc2cccn3c(=O)[nH]nc23)cc1', 'Not met'),
  ('COc1ccc(OCCNc2cccn3c(=O)[nH]nc23)cc1', 'Not met'),
  ('Cc1cc(NCCCc2ccc(C)nc2)c2n[nH]c(=O)n2c1.Cl', 'Met'),
  ('Cl.Nc1cc(CCCNc2cc(Cl)cn3c(=O)[nH]nc23)ccn1', 'Met'),
  ('Cc1cc(N(C)CCCc2ccccn2)c2n[nH]c(=O)n2c1.Cl', 'Not met'),
  ('Cl.O=c1[nH]nc2c(NCCCc3cccnc3)cc(Cl)cn12', 'Met'),
  ('Cc1cc(NCCCc2ccccn2)c2n[nH]c(=O)n2c1.Cl', 'Not met'),
  ('COc1cc(CCCNc2cc(C)cn3c(=O)[nH]nc23)ccn1.Cl', 'Met'),
  ('Cc1cc(NCCCn2ccnc2)c2n[nH]c(=O)n2c1.Cl', 'Not met'),
  ('COc1ccc(OCCNc2cc(C)cn3c(=O)[nH]nc23)cc1', 'Not met'),
  ('Cl.O=c1[nH]nc2c(NCCCc3ccnc(Cl)c3)cc(Cl)cn12', 'Met'),
  ('COc1ccc(OCCn2nc3c(N)cccn3c2=O)cc1', 'Not met');
